# Test system: tetA promoter (PtetA)-lacZ reporter in E. coli KM3
# Format: cell-based
# CONDITION_NOTES: Table 6, reverse repressor hits; chlorsulfuron, same plate assay format as Table 4
RECORDED_METRIC: relative β-galactosidase activity, inducer Cs
Respond using a number only.

Q. Fill blank: measured relative β-galactosidase activity, inducer Cs of the molecule L1-36: library L1 reverse repressor hit (SEQ ID NO: 1206-1213) (protein, rSuR L1-36) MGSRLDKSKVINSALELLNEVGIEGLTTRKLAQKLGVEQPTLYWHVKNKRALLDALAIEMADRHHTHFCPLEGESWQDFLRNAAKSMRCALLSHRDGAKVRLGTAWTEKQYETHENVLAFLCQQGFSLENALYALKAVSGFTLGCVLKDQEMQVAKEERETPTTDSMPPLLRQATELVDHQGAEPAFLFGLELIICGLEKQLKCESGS is ____.
A. 0.24

Q. Fill blank: measured relative β-galactosidase activity, inducer Cs of the molecule L1-39: library L1 reverse repressor hit (SEQ ID NO: 1206-1213) (protein, rSuR L1-39) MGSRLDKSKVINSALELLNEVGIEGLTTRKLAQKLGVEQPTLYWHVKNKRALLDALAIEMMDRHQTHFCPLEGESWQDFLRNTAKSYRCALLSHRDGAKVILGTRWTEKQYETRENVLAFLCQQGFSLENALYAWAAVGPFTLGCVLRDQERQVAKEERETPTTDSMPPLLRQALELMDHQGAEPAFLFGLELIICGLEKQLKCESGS is ____.
A. 0.89

Entry source: patent US8580556B2
